# procedure.summary: Selection of a solvent for the active component: solubility judged by naked eye
# Assay type: physicochemical
# experimental.context: 0.5% HCO 50, 80 °C, aqueous with cosolvent or surfactant or cyclodextrin, thermodynamic from solid, solvent 0.5% HCO 50; KRN7000 10 μg/ml; read-out: Judgment of solubility (by naked eye)
property: solubility at 20 min

Inquiry: Consider the molecule shown here: CCCCCCCCCCCCCCCCCCCCCCCCCC(=O)N[C@@H](CO[C@H]1O[C@H](CO)[C@H](O)[C@H](O)[C@H]1O)[C@H](O)[C@H](O)CCCCCCCCCCCCCC [KRN7000] What is its recorded solubility at 20 min?
Reply text: < 10 µg/mL

---

# procedure.summary: Selection of a solvent for the active component: solubility judged by naked eye
# Format: physicochemical
# experimental.context: Propylene glycol, 80 °C, organic solvent or mixture, thermodynamic from solid, solvent Propylene glycol; KRN7000 10 μg/ml; read-out: Judgment of solubility (by naked eye)
property: solubility at 20 min

Inquiry: So what does the record say about solubility at 20 min for `CCCCCCCCCCCCCCCCCCCCCCCCCC(=O)N[C@@H](CO[C@H]1O[C@H](CO)[C@H](O)[C@H](O)[C@H]1O)[C@H](O)[C@H](O)CCCCCCCCCCCCCC` ?
Reply text: > 10 µg/mL

---

# procedure.summary: Selection of a solvent for the active component: solubility judged by naked eye
# Assay type: physicochemical
# experimental.context: Ethanol, 80 °C, organic solvent or mixture, thermodynamic from solid, solvent Ethanol; KRN7000 200 μg/ml; read-out: Judgment of solubility (by naked eye)
property: solubility at 20 min

Inquiry: Fill in: solubility at 20 min of `CCCCCCCCCCCCCCCCCCCCCCCCCC(=O)N[C@@H](CO[C@H]1O[C@H](CO)[C@H](O)[C@H](O)[C@H]1O)[C@H](O)[C@H](O)CCCCCCCCCCCCCC` is ___
Reply text: > 200 µg/mL

---

# procedure.summary: Selection of a solvent for the active component: solubility judged by naked eye
# Format: physicochemical
# experimental.context: 0.5% Polysorbate 20, 80 °C, aqueous with cosolvent or surfactant or cyclodextrin, thermodynamic from solid, solvent 0.5% Polysorbate 20; KRN7000 10 μg/ml; read-out: Judgment of solubility (by naked eye)
property: solubility at 20 min

Inquiry: Return reported solubility at 20 min; argument: CCCCCCCCCCCCCCCCCCCCCCCCCC(=O)N[C@@H](CO[C@H]1O[C@H](CO)[C@H](O)[C@H](O)[C@H]1O)[C@H](O)[C@H](O)CCCCCCCCCCCCCC [KRN7000]
Reply text: > 10 µg/mL

---

# procedure.summary: Selection of a solvent for the active component: solubility judged by naked eye
# Format: physicochemical
# experimental.context: 0.5% Cremophor, 80 °C, aqueous with cosolvent or surfactant or cyclodextrin, thermodynamic from solid, solvent 0.5% Cremophor; KRN7000 10 μg/ml; read-out: Judgment of solubility (by naked eye)
property: solubility at 20 min

Inquiry: Item CCCCCCCCCCCCCCCCCCCCCCCCCC(=O)N[C@@H](CO[C@H]1O[C@H](CO)[C@H](O)[C@H](O)[C@H]1O)[C@H](O)[C@H](O)CCCCCCCCCCCCCC [KRN7000] has what recorded solubility at 20 min?
Reply text: < 10 µg/mL

---

# procedure.summary: Selection of a solvent for the active component: solubility judged by naked eye
# Assay type: physicochemical
# experimental.context: 1N NaOH, 80 °C, aqueous buffer, thermodynamic from solid, solvent 1N NaOH; KRN7000 10 μg/ml; read-out: Judgment of solubility (by naked eye)
property: solubility at 20 min

Inquiry: Consider the compound shown here: `CCCCCCCCCCCCCCCCCCCCCCCCCC(=O)N[C@@H](CO[C@H]1O[C@H](CO)[C@H](O)[C@H](O)[C@H]1O)[C@H](O)[C@H](O)CCCCCCCCCCCCCC` What is its recorded solubility at 20 min?
Reply text: < 10 µg/mL

These data points were gathered from patent US6417167B1.
